System Under Test: Kallikrein-7 (Homo sapiens) (UniProt P49862)
Sequence (P49862 whole entry, looked up): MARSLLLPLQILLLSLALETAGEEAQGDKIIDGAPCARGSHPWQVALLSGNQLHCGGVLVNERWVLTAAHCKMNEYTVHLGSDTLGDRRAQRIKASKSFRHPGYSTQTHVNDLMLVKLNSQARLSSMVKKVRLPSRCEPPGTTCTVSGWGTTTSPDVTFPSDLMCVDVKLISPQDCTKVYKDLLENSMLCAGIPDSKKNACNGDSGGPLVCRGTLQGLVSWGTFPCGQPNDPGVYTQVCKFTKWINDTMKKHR
Experiment Notes: activation of human kallikrein-7 proenzyme – biochemical, fluorescence intensity, primary screen (AID 652039)
Reported Conditions: purified proKLK7, EDANS-DABCYL substrate fluorescence; at 7 µM; 100% is mature enzyme control, 0% vehicle
In all, about 370,000 compounds went through this assay and about 3,300 (0.89%) were called active.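 Rule for the calls: active = activation above the mean of all tested compounds plus 3 SD, computed per campaign excluding outliers beyond control limits (cut at about 13% in these data); inactive = the rest.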 What follows is part of a selection rich in actives, with near analogues and random picks from the rest.
Classes used: active, inactive

Molecule: O=C(CCl)NC1CCCCN(Cc2cccc(C(F)(F)F)c2)C1=O (stereo unspecified)
Label Class: inactive

Molecule: CCN1CCc2c(C#N)c(NCc3ccccc3)nc(NCCO)c2C1
Label Class: active

Molecule: COC(=O)[C@]12C[C@H](CC(=O)N3CCOCC3)C(=O)N(Cc3ccc(Cl)cc3Cl)C1=C[C@H](COCc1ccccc1)O[C@@H]2C
Label Class: inactive

Molecule: CCOC(=O)C1=C(C)OC(N)=C(C#N)C1c1cncc(-c2ccc(F)cc2)c1 (stereo unspecified)
Label Class: inactive

Molecule: CCOC(=O)COc1cc(OCC(=O)OCC)c2c(=O)cc(-c3ccccc3)oc2c1
Label Class: active

Molecule: CCOC(=O)[C@]12CCCC3=C1N(CCC3)C(=O)[C@@H](CC(=O)NCC13CC4CC(CC(C4)C1)C3)C2
Label Class: inactive

Molecule: CN1c2ccccc2-c2nc3ccccc3n2C1c1ccco1 (stereo unspecified)
Label Class: active

Molecule: CCOC(=O)CN1C(=O)C(O)(CC(=O)c2ccccn2)c2ccccc21 (stereo unspecified)
Label Class: inactive

Molecule: COC(=O)C1CN(CC(C)C)CCS(=O)(=O)N1Cc1ccc(F)cc1 (stereo unspecified)
Label Class: inactive

Molecule: COC(=O)C1=C(C)OC(N)=C(C#N)C1c1cc(OC)ccc1OC (stereo unspecified)
Label Class: active

Molecule: Cc1cc(OCC(=O)NCC(O)c2ccccc2)c2c(C)c(C)c(=O)oc2c1 (stereo unspecified)
Label Class: inactive

Molecule: CC(C)c1ccc(C2C(C#N)=C(N)Oc3c2oc(CO)cc3=O)cc1 (stereo unspecified)
Label Class: inactive

Molecule: Cc1cc(C)cc(NC(=O)N2CCC(N(C)CCC(C)C)CC2)c1
Label Class: inactive

Molecule: CCC1=C(C(=O)OC)C(c2cc(OC)ccc2OC)C(C#N)=C(N)O1 (stereo unspecified)
Label Class: active

Molecule: COC(=O)C1=C(C)N(C)C(=S)NC1c1cc(OC)ccc1OC (stereo unspecified)
Label Class: inactive

Molecule: COCC(=O)N[C@@H]1C[C@@H]2O[C@@H](CO)CC[C@@H]2O[C@@H]1CCc1ccc(-c2ccccc2)cc1
Label Class: inactive

Molecule: COc1cc(C)ccc1OCC(=O)OCC(=O)c1ccc[nH]1
Label Class: inactive

Molecule: FC(F)(F)c1cccc(Cn2ccc3ccc(-c4ccc5ccn(Cc6ccccc6)c5c4)cc32)c1
Label Class: inactive

Molecule: COc1ccc(CNC(=O)C(C)n2nc(C)c3c(C)n(-c4ccccc4)nc3c2=O)c(OC)c1 (stereo unspecified)
Label Class: inactive

Molecule: CCCC[C@H]1C2CC(OC(=O)NCc3ccccc3)C(C2)[C@H]2CCCCN21 (stereo partly specified)
Label Class: inactive

Molecule: CC(C)CCNc1nc(N2CCCC2)c2c(c1C#N)CCN(C)C2
Label Class: inactive
